B1: RSPH3 (parent)
chain: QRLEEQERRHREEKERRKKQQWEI

Variants of: B1
assay-details: protein stability index of a GFP-peptide fusion (GPS, HEK-293T) (PSI 1-6); higher = more stable;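 note: lentivirally expressed fusions sorted by FACS into six bins by GFP to DsRed ratio, PSI derived from sequencing read proportions per bin multiplied by bin number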
stated-conditions: c terminus: a fixed tail appended
Property: protein stability index; scope: individual variants

# mutation-id, protein stability index
measured = [
    ("Q20Y", 4.19),
    ("K14Y", 4.34),
    ("H10Y", 4.05),
    ("R9S", 3.85),
    ("R8S", 4.64),
    ("E12T", 4.28),
    ("K18F", 4.43),
    ("K14H", 4.73),
    ("E12V", 4.5),
    ("E4H", 4.18),
    ("I24C", 4.48),
    ("E4L", 4.46),
    ("W22G", 5.48),
    ("L3G", 4.75),
    ("E5G", 4.53),
    ("H10K", 4.84),
    ("E23H", 4.39),
    ("R8T", 4.97),
    ("R11A", 4.91),
    ("R8I", 4.42),
    ("R11N", 5.19),
    ("R2W", 3.79),
    ("K18H", 4.56),
    ("R17L", 5.03),
    ("K14D", 4.65),
    ("Q20L", 4.35),
    ("E5W", 3.98),
    ("E5N", 3.67),
    ("H10G", 4.51),
    ("R9V", 4.85),
    ("R16K", 4.57),
    ("E4N", 4.9),
    ("R2F", 4.48),
    ("I24T", 4.3),
    ("R2D", 5.14),
    ("E23V", 3.18),
    ("L3E", 5.28),
    ("R17V", 4.56),
    ("E7C", 4.15),
    ("E7G", 3.95),
    ("R16A", 4.5),
    ("K18Q", 4.83),
    ("R8K", 4.33),
    ("R8M", 3.7),
    ("K14L", 3.94),
    ("H10V", 4.45),
    ("Q6V", 4.85),
    ("R9M", 5.37),
    ("H10M", 4.43),
    ("E15P", 3.62),
    ("K18E", 4.6),
    ("R2S", 5),
    ("W22T", 5.67),
    ("E4I", 4.17),
    ("E4P", 4.48),
    ("I24S", 4.76),
    ("Q1D", 4.59),
    ("E5V", 4.58),
    ("R2P", 4.1),
    ("Q21T", 4.68),
    ("I24M", 4.56),
    ("Q21G", 4.61),
    ("Q21C", 4.17),
    ("E4T", 4.15),
    ("E5L", 4.44),
    ("E7M", 3.38),
    ("W22I", 4.38),
    ("E15R", 3.75),
    ("H10D", 4.38),
    ("K14R", 4.15),
    ("E5P", 4.42),
    ("K19N", 4.59),
    ("Q21M", 4.02),
    ("E23K", 4.42),
    ("H10F", 4.48),
]
